Exercise: state measured pEC50 for each of the compounds provided.
- SYSTEM: AMPK alpha2/beta1/gamma1 (Homo sapiens, UniProt P54619+P54646+Q9Y478)
- Sequence (Q9Y478 whole entry, one chain of several): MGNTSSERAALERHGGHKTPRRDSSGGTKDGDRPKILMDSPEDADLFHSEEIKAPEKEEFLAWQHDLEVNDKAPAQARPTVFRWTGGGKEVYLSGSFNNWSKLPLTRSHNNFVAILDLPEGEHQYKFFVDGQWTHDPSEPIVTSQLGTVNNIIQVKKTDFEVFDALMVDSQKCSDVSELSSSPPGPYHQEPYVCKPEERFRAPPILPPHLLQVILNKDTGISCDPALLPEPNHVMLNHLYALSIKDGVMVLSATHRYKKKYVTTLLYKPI
- MEASUREMENT PROTOCOL: Agonist activity at human recombinant phosphorylated AMPK complex 7 alpha2/beta1/gamma1 expressed in baculovirus infected Sf21 cells assessed as phosphorylation of 5-FAM-labeled SAMS substrate preincubated for 30 mins in presence of AMPK activator followed by substrate addition measured after 60 mins
Formally, pEC50 is defined as -log10 of the concentration c, with c in mol/L.

Returns the measured pEC50 for the input compound. Input: `O=C(O)CCc1nc2cc(Cl)c(-c3ccc(-c4ccccc4)cc3)cc2[nH]1`
5.22

Returns the measured pEC50 for the input compound. Input: `O=C(O)CSc1nc2cc(Cl)c(Cl)cc2[nH]1`
5.40

Returns the measured pEC50 for the input compound. Input: `O=C(O)c1cccc(Sc2nc3cc(-c4ccc(-c5ccccc5)cc4)c(Cl)cc3[nH]2)c1`
6.10

Returns the measured pEC50 for the input compound. Input: `O=C(O)c1cccc(Oc2nc3cc(-c4ccc(-c5ccccc5)cc4)c(Cl)cc3[nH]2)c1`
7.21

Returns the measured pEC50 for the input compound. Input: `O=C(O)CCc1nc2cc(Cl)c(-c3ccccc3)cc2[nH]1`
5.10

Returns the measured pEC50 for the input compound. Input: `O=C(O)c1cccc(Sc2nc3cc(Cl)c(Cl)cc3[nH]2)c1`
5.13

Returns the measured pEC50 for the input compound. Input: `Cc1ccc(Oc2nc3cc(C#Cc4ccccc4)c(Cl)cc3[nH]2)cc1C(=O)O`
8.15

Returns the measured pEC50 for the input compound. Input: `O=C(O)Cc1cccc(Sc2nc3cc(Cl)c(Cl)cc3[nH]2)c1`
5.54

Returns the measured pEC50 for the input compound. Input: `Cc1ccc(Oc2nc3cc(-c4ccc5c(ccn5C)c4)c(Cl)cc3[nH]2)cc1C(=O)O`
8.70

Returns the measured pEC50 for the input compound. Input: `Cc1ccc(Oc2nc3cc(-c4ccc(-c5ccn[nH]5)cc4)c(Cl)cc3[nH]2)cc1C(=O)O`
7.96

Returns the measured pEC50 for the input compound. Input: `O=C(O)CSc1nc2cc(-c3ccc(-c4ccccc4)cc3)c(Cl)cc2[nH]1`
6.82

Returns the measured pEC50 for the input compound. Input: `O=C(O)c1csc(Sc2nc3cc(Cl)c(Cl)cc3[nH]2)n1`
5.59

Returns the measured pEC50 for the input compound. Input: `O=C(O)c1ccccc1Sc1nc2cc(Cl)c(Cl)cc2[nH]1`
5.09

Returns the measured pEC50 for the input compound. Input: `O=C(O)c1cccc(Sc2nc3cc(-c4ccc(-c5ccccc5O)cc4)c(Cl)cc3[nH]2)c1`
7.54

Returns the measured pEC50 for the input compound. Input: `O=C(O)CCSc1nc2cc(Cl)c(Cl)cc2[nH]1`
5.07

Returns the measured pEC50 for the input compound. Input: `O=C(O)c1cc(Oc2nc3cc(C#Cc4ccccc4)c(Cl)cc3[nH]2)ccc1Cl`
7.82

Returns the measured pEC50 for the input compound. Input: `O=C(O)CCc1nc2cc(Cl)c(Cl)cc2[nH]1`
4.44

Returns the measured pEC50 for the input compound. Input: `O=C(O)c1cc(Oc2nc3cc(-c4ccc(-c5ccccc5)cc4)c(Cl)cc3[nH]2)ccc1Cl`
7.49

Returns the measured pEC50 for the input compound. Input: `O=C(O)CSc1nc2cc(C#Cc3ccccc3)c(Cl)cc2[nH]1`
6.70

Returns the measured pEC50 for the input compound. Input: `Cc1ccc(Oc2nc3cc(-c4ccc(-c5ccccc5O)cc4)c(Cl)cc3[nH]2)cc1C(=O)O`
8.52

====

- MEASUREMENT PROTOCOL: Terminal half life in Sprague-Dawley rat at 1 mg/kg, iv or 4 mg/kg administered through oral gavage by LC-MS/MS analysis
- Assay type: ADME, organism-based
- TEST PARAMETERS: in vivo, read-out: beta t1/2 (converted)
ASSAY READOUT: half-life (h)
Please state the figure in h; there is no need to write the unit.

Returns the measured half-life for the input compound. Input: `Cc1ccc(Oc2nc3cc(-c4ccc(-c5ccccc5)cc4)c(Cl)cc3[nH]2)cc1C(=O)O`
1.7

====

- MEASUREMENT PROTOCOL: Volume of distribution at steady state in Sprague-Dawley rat at 1 mg/kg, iv or 4 mg/kg administered through oral gavage by LC-MS/MS analysis
- Type: ADME, organism-based
- TEST PARAMETERS: in vivo, read-out: Vdss
ASSAY READOUT: Vd (L/kg)
Please state the figure in L/kg; there is no need to write the unit.

Returns the measured Vd for the input compound. Input: `Cc1ccc(Oc2nc3cc(-c4ccc(-c5ccccc5)cc4)c(Cl)cc3[nH]2)cc1C(=O)O`
0.6

====

- MEASUREMENT PROTOCOL: Oral bioavailability in Beagle dog at 1 mg/kg administered through gavage by LC-MS/MS analysis
- Type: ADME, organism-based, Canis lupus familiaris
- TEST PARAMETERS: in vivo
ASSAY READOUT: bioavailability (%)
Please state the figure in %; there is no need to write the unit.

Returns the measured bioavailability for the input molecule. Input: `Cc1ccc(Oc2nc3cc(-c4ccc(-c5ccccc5)cc4)c(Cl)cc3[nH]2)cc1C(=O)O`
78

====

- SYSTEM: AMPK alpha2/beta1/gamma1 (Homo sapiens) (UniProt P54646+P54619+Q9Y478)
- Sequence (P54619 whole entry partner): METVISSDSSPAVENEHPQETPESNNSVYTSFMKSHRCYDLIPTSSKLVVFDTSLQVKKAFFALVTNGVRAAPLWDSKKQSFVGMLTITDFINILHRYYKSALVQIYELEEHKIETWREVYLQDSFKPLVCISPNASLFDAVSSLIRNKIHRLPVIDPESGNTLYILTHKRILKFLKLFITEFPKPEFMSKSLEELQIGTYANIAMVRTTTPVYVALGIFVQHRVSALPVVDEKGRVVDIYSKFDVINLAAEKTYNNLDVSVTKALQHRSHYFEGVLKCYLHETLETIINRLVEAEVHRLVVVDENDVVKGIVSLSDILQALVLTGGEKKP
- Sequence (P54646 whole entry): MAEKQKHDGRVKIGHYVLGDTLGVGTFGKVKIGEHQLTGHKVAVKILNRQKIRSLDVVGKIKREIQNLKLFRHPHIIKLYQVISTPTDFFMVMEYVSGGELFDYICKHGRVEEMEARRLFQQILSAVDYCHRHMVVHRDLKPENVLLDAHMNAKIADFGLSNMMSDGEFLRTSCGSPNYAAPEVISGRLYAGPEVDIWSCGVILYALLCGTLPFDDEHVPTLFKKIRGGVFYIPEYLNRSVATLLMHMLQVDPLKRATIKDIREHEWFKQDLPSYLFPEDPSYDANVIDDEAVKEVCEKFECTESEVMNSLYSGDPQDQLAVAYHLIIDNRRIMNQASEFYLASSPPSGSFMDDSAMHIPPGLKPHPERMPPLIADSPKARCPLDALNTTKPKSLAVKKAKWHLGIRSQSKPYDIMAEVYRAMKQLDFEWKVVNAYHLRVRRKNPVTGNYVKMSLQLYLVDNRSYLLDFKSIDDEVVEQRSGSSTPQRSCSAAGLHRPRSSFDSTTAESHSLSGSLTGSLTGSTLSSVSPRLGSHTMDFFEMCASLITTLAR
- Sequence (Q9Y478 2-270 partner limits assumed): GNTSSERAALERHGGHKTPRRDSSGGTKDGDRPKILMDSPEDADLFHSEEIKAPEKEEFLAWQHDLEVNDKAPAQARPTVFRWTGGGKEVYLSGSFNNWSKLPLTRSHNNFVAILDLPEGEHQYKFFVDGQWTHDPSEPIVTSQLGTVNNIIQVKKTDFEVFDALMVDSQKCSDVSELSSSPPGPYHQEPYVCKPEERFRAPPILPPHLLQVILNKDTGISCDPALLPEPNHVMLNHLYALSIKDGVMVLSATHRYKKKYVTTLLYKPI
- MEASUREMENT PROTOCOL: Agonist activity at human recombinant phosphorylated AMPK complex 7 alpha2/beta1/gamma1 expressed in baculovirus infected Sf21 cells assessed as phosphorylation of 5-FAM-labeled SAMS substrate at 50 uM preincubated for 30 mins in presence of AMPK activator followed by substrate addition measured after 60 mins relative to AMP
Please note: %max exactly at 40% is false. Only values below 40% get true.

Does the reported %max of `O=C(O)c1cccc(-c2nc3cc(Cl)c(Cl)cc3[nH]2)c1` stay below 40%?
true

Does the reported %max of `O=C(O)CSc1nc2cc(Cl)c(Cl)cc2[nH]1` stay below 40%?
false

Does the reported %max of `O=C(O)c1ccc(Sc2nc3cc(Cl)c(Cl)cc3[nH]2)cc1` stay below 40%?
true

Does the reported %max of `O=C(O)CCSc1nc2cc(Cl)c(Cl)cc2[nH]1` stay below 40%?
false

Does the reported %max of `O=C(O)c1ccccc1Sc1nc2cc(Cl)c(Cl)cc2[nH]1` stay below 40%?
false

Does the reported %max of `O=C(O)CCc1nc2cc(Cl)c(Br)cc2[nH]1` stay below 40%?
false

Does the reported %max of `O=C(O)c1ccccc1-c1nc2cc(Cl)c(Cl)cc2[nH]1` stay below 40%?
true

Does the reported %max of `O=C(O)CCc1nc2cc(Cl)c(-c3ccccc3)cc2[nH]1` stay below 40%?
false

Does the reported %max of O=C(O)CC[S+]([O-])c1nc2cc(Cl)c(Cl)cc2[nH]1 (configuration not stated) stay below 40%?
true

Does the reported %max of `Cc1cc2nc(CCC(=O)O)[nH]c2cc1C` stay below 40%?
true

Does the reported %max of `O=C(O)CCc1nc2ccccc2[nH]1` stay below 40%?
true

Does the reported %max of `O=C(O)CCc1nc2cc(Cl)c(Cl)cc2[nH]1` stay below 40%?
false

====

- SYSTEM: AMPK alpha1/beta1/gamma2 (Homo sapiens, UniProt Q13131+Q9UGJ0+Q9Y478)
- Sequence (Q9UGJ0 whole entry): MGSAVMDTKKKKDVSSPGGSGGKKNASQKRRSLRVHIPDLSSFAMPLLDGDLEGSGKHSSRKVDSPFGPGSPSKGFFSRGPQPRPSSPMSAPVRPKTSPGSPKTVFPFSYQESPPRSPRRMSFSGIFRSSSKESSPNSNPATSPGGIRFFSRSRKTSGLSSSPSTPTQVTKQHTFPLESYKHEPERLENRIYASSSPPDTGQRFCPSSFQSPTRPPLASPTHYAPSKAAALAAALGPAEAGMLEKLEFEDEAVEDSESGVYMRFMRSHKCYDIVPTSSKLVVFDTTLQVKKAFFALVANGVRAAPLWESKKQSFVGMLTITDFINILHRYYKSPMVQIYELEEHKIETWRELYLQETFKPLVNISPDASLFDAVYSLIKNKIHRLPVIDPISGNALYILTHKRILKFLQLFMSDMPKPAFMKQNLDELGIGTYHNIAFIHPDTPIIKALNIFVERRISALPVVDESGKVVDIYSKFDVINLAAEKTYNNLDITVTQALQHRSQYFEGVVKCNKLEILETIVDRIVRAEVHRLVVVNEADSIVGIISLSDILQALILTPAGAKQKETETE
- Sequence (Q9Y478 whole entry): as the sequence (Q9Y478 whole entry, one chain of several) above
- Sequence (Q13131 whole entry): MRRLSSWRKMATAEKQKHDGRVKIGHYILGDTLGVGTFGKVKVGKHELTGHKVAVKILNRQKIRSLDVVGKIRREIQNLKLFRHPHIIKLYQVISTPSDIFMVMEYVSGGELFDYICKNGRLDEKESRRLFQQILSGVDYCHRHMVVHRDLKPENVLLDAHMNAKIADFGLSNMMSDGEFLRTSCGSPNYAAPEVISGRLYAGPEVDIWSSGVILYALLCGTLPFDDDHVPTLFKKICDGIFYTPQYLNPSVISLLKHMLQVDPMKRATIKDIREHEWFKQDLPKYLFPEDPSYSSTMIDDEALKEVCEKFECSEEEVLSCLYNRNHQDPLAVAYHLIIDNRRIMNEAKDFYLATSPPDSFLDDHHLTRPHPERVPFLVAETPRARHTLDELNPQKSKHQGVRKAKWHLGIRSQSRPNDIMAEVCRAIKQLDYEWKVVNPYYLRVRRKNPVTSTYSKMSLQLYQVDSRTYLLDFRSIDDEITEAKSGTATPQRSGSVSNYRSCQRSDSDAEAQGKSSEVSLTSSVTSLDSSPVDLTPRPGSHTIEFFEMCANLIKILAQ
- MEASUREMENT PROTOCOL: Agonist activity at human recombinant phosphorylated AMPK complex 2 alpha1/beta1/gamma2 expressed in baculovirus infected Sf21 cells assessed as phosphorylation of 5-FAM-labeled SAMS substrate preincubated for 30 mins in presence of AMPK activator followed by substrate addition measured after 60 mins
ASSAY READOUT: EC50 (nM)
Please state the figure in nM; there is no need to write the unit.

Returns the measured EC50 for the input compound. Input: `Cc1ccc(Oc2nc3cc(-c4ccc(-c5ccccc5)cc4)c(Cl)cc3[nH]2)cc1C(=O)O`
21

====

- MEASUREMENT PROTOCOL: Plasma clearance in Sprague-Dawley rat at 1 mg/kg, iv or 4 mg/kg administered through oral gavage by LC-MS/MS analysis
- Format: ADME, organism-based
ASSAY READOUT: clearance (mL/min/kg)
Please state the figure in mL/min/kg; there is no need to write the unit.

Returns the measured clearance for the input molecule. Input: `Cc1ccc(Oc2nc3cc(-c4ccc(-c5ccccc5)cc4)c(Cl)cc3[nH]2)cc1C(=O)O`
5

====

- SYSTEM: UniProtKB O75469
- Sequence (O75469 whole entry): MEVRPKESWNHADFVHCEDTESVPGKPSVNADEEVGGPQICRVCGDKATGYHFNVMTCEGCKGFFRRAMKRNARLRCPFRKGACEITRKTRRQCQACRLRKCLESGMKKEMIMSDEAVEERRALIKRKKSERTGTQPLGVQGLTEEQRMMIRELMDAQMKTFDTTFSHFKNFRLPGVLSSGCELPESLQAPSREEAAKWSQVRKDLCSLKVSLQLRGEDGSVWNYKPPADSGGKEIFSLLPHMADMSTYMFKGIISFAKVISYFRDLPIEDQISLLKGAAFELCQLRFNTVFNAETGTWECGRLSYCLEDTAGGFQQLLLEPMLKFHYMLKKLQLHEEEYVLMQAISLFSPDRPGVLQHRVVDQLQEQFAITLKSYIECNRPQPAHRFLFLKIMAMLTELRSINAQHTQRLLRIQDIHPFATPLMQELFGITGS
- MEASUREMENT PROTOCOL: Activation of human PXR transfected in human hepatoma cells assessed as induction of CYP3A4 by luciferase reporter gene assay
ASSAY READOUT: EC50

Returns the measured EC50 for the input compound. Input: `Cc1ccc(Oc2nc3cc(-c4ccc(-c5ccccc5)cc4)c(Cl)cc3[nH]2)cc1C(=O)O`
> 30 µM

====

pIC50: −log10 of the molar value.
ASSAY READOUT: pIC50

Entry `Cc1ccc(Oc2nc3cc(-c4ccc(-c5ccccc5)cc4)c(Cl)cc3[nH]2)cc1C(=O)O` , system Cytochrome P450 3A4 (Homo sapiens): what pIC50 was measured?
< 4.30
